- measurementProtocol: Permeability across Caco-2 cell membrane
- Type: ADME, cell-based
- runParameters: human, read-out: permeability
metricName: Papp

Some compounds with known Papp results, for comparison:
>>> reportedmeasurement("O=C1C[C@@H](c2ccc(C[C@H](NS(=O)(=O)c3ccccc3)c3nc4ccccc4[nH]3)cc2Cl)S(=O)(=O)[N-]1.[Na+]")
"< 0.1 ×10⁻⁶ cm/s"
>>> reportedmeasurement("O=C1CC(c2ccc(C[C@H](NS(=O)(=O)c3cccc(C(F)(F)F)c3)c3nc4cc(Cl)ccc4[nH]3)cc2F)S(=O)(=O)[N-]1.[Na+] (stereo partly specified)")
"0.3 ×10⁻⁶ cm/s"

// Papp lookup, key: "O=C1C[C@@H](c2ccc(C[C@H](NS(=O)(=O)c3ccccc3)c3nc4ccccc4[nH]3)cc2)S(=O)(=O)[N-]1.[Na+]"
0.4 ×10⁻⁶ cm/s

// Papp lookup, key: "Cc1cc(C[C@H](NS(=O)(=O)c2ccccc2C#N)c2nc3ccccc3[nH]2)ccc1[C@@H]1CC(=O)[N-]S1(=O)=O.[Na+]"
< 0.1 ×10⁻⁶ cm/s

// Papp lookup, key: "O=C1C[C@@H](c2ccc(C[C@H](NS(=O)(=O)c3cccc(F)c3)c3nc4ccccc4[nH]3)cc2F)S(=O)(=O)[N-]1.[Na+]"
< 0.1 ×10⁻⁶ cm/s

// Papp lookup, key: O=C1CC(c2ccc(C[C@H](NS(=O)(=O)c3ccccc3)c3nc4ccccc4[nH]3)cc2Br)S(=O)(=O)[N-]1.[Na+] (stereo partly specified)
< 0.1 ×10⁻⁶ cm/s

###

- targetOrTestSystem: Tyrosine-protein phosphatase non-receptor type 1 (Homo sapiens, UniProt P18031)
- Sequence (P18031 whole entry): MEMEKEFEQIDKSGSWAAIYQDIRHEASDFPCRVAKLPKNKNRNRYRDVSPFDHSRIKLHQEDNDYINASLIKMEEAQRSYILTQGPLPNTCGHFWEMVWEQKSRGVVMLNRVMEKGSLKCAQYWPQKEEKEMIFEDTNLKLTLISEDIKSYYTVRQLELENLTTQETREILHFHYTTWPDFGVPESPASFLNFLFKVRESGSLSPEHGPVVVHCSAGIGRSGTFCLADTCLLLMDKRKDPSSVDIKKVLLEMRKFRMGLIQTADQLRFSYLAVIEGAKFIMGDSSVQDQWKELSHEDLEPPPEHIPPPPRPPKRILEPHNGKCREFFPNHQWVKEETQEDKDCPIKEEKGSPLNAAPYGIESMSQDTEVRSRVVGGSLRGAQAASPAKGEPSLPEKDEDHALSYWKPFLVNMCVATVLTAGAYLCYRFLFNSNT
pIC50: −log10 of the molar value.
metricName: pIC50

>>> reportedmeasurement("Cc1cccc(S(=O)(=O)NC(Cc2ccc(C3CC(=O)NS3(=O)=O)cc2)c2nc3ccccc3[nH]2)c1 (stereo not drawn)")
7.07

1. Cc1ccccc1S(=O)(=O)NC(Cc1ccc(C2CC(=O)NS2(=O)=O)cc1)c1nc2ccccc2[nH]1 (stereo not drawn)
2. O=C1CC(c2ccc(CC(NS(=O)(=O)c3ccccc3C(F)(F)F)c3nc4ccccc4[nH]3)cc2)S(=O)(=O)N1 (stereo not drawn)
Between the entries labelled 1 and 2 , which has a larger pIC50 value on record? I would appreciate it if you answered with the label of your choice.
2
(2: 6.89, 1: 6.52)
